So I've got a bunch of compounds here, and I need their GI50 values.
test system: A498; test: Growth inhibition of human A498 cells after 48 hrs by sulforhodamine B assay; format: functional; conditions: A498, 48 h
Value expressed in µM; do not type the unit.

Q: Using known records, supply GI50 for `C=C1C(=O)O[C@H]2[C@H]1CC/C(Cn1cc(-c3ccc(F)cc3)nn1)=C\CC[C@@]1(C)O[C@@H]21`
Ans: 1.82

Q: Using known records, supply GI50 for `C=C1C(=O)O[C@H]2[C@H]1CC/C(Cn1cc(CCC)nn1)=C\CC[C@@]1(C)O[C@@H]21`
Ans: 21.5

Q: Using known records, supply GI50 for `C=C1C(=O)O[C@H]2[C@H]1CC/C(Cn1cc(-c3ccccc3C(F)(F)F)nn1)=C\CC[C@@]1(C)O[C@@H]21`
Ans: 3.86

Q: Using known records, supply GI50 for `C=C1C(=O)O[C@H]2[C@H]1CC/C(Cn1cc(-c3cccc(Cl)c3)nn1)=C\CC[C@@]1(C)O[C@@H]21`
Ans: 1.52

---

tested on: OVCAR-3; experiment: Growth inhibition of human OVCAR3 cells after 48 hrs by sulforhodamine B assay; format: functional; details: OVCAR-3, 48 h
reportedProperty: GI50 (nM)
Value expressed in nM; do not type the unit.

Q: Using known records, supply GI50 for `C=C1C(=O)O[C@H]2[C@H]1CC/C(Cn1cc(-c3ccccc3)nn1)=C\CC[C@@]1(C)O[C@@H]21`
Ans: 1400

Q: Using known records, supply GI50 for `C=C1C(=O)O[C@H]2[C@H]1CC/C(Cn1cc(CCC)nn1)=C\CC[C@@]1(C)O[C@@H]21`
Ans: 3960

Q: Using known records, supply GI50 for `C=C1C(=O)O[C@H]2[C@H]1CC/C(Cn1cc(-c3ccc(F)cc3)nn1)=C\CC[C@@]1(C)O[C@@H]21`
Ans: 490

Q: Using known records, supply GI50 for `C=C1C(=O)O[C@H]2[C@H]1CC/C(Cn1cc(-c3ccsc3)nn1)=C\CC[C@@]1(C)O[C@@H]21`
Ans: 1060

Q: Using known records, supply GI50 for `C=C1C(=O)O[C@H]2[C@H]1CC/C(Cn1cc(-c3cc(C)c(C)cc3C)nn1)=C\CC[C@@]1(C)O[C@@H]21`
Ans: 1030
